In this section we review reported IC50 values for a set of compounds.
Target: human full-length MKNK1 (Homo sapiens, UniProt Q9BUB5, T385D)
Construct: GST (N)
Sequence (Q9BUB5 1-424 isoform Q9BUB5-2 T344D): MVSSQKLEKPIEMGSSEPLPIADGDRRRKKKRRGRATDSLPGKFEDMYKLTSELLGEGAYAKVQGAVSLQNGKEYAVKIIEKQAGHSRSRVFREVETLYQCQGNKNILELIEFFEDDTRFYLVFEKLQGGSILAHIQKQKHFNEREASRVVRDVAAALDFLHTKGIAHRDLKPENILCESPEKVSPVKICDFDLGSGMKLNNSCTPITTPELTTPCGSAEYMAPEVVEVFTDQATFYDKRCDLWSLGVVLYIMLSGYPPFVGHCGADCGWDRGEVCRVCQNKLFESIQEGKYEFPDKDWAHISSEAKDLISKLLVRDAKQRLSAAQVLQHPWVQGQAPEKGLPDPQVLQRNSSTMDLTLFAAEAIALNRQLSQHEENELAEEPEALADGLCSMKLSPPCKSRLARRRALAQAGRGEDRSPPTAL
Test: MKNK1 kinase high ATP assay (TR-FRET)
Conditions: high ATP (2 mM final), 15 min preincubation with enzyme
Write the answer as a number in nM, unit excluded.

1) c1cncc(-c2c[nH]c3ncnc(Nc4ccc5[nH]ncc5c4)c23)c1 : 9
2) CCc1c[nH]c2ncnc(Nc3ccc4[nH]ncc4c3)c12 : 29
3) Fc1ccc(-c2c[nH]c3ncnc(Nc4ccc5[nH]ncc5c4)c23)cc1 : 16

# next compound below
[in] I am curious: what IC50 value has been reported for CCOC(=O)c1cc2c(Nc3ccc4[nH]ncc4c3)ncnc2[nH]1 ?
[out] 25

----------
Molecular target: human full-length MKNK1 (Homo sapiens, UniProt Q9BUB5, T385D)
Construct: GST (N)
Experiment: MKNK1 kinase high ATP assay (TR-FRET)
Details: high ATP (2 mM final), 15 min preincubation with enzyme
In this section we review reported log10 IC50 values for a set of compounds.
All values: log10 IC50 [nM].

Reference set, count: 8
1) O=S(=O)(c1ccccc1)c1cc2c(Nc3ccc4[nH]ncc4c3)ncnc2[nH]1 : 0.00
2) Brc1c[nH]c2ncnc(Nc3ccc4[nH]ncc4c3)c12 : 1.00
3) CC(C)Cc1[nH]c2ncnc(Nc3ccc4[nH]ncc4c3)c2c1C(C)C : 1.32
4) C[C@@H]1COCCN1C(=O)c1[nH]c2ncnc(Nc3ccc4[nH]ncc4c3)c2c1Br : 1.76
5) CCOC(=O)c1[nH]c2ncnc(Nc3ccc4[nH]ncc4c3)c2c1Br : 0.48
6) O=C(c1cc2c(Nc3ccc4[nH]ncc4c3)ncnc2[nH]1)N1CCCC1 : 0.90
7) CCCCNC(=O)c1cc2c(Nc3ccc4[nH]ncc4c3)ncnc2[nH]1 : 0.70
8) c1nc(Nc2ccc3[nH]ncc3c2)c2cc(C3CCOCC3)[nH]c2n1 : 1.46

[in] I am curious: what log10 IC50 value has been reported for O=C(NC1CCOCC1)c1cc2c(Nc3ccc4[nH]ncc4c3)ncnc2[nH]1 ?
[out] 0.90

----------
Molecular target: human full-length MKNK1 (Homo sapiens, UniProt Q9BUB5, T385D)
Construct: GST (N)
Test: MKNK1 kinase high ATP assay (TR-FRET)
Settings: high ATP (2 mM final), 15 min preincubation with enzyme
pIC50: −log10 of the molar value.
Think of 8 as a floor: if pIC50 stands on it or above, it is Condition met; beneath it, Condition not met.

// known answers, use as guide
1. OCc1c[nH]c2ncnc(Nc3ccc4[nH]ncc4c3)c12 : Condition not met
2. FC(F)(F)c1c[nH]c2ncnc(Nc3ccc4[nH]ncc4c3)c12 : Condition not met
3. O=S(=O)(c1ccc(Cl)cc1)c1cc2c(Nc3ccc4[nH]ncc4c3)ncnc2[nH]1 : Condition met

[in] Hello, I need to know if O=C(c1[nH]c2ncnc(Nc3ccc4[nH]ncc4c3)c2c1Br)N1CCOCC1 has measured pIC50 not below 8. Thanks!
[out] Condition not met

----------
Target: human full-length MKNK1 (Homo sapiens, UniProt Q9BUB5, T385D)
Construct: GST (N)
Experiment: MKNK1 kinase high ATP assay (TR-FRET)
Conditions: high ATP (2 mM final), 15 min preincubation with enzyme
pIC50: −log10 of the molar value.
Think of 8 as a floor: if pIC50 stands on it or above, it is T; beneath it, F.

1. C[C@H]1COCCN1C(=O)c1[nH]c2ncnc(Nc3ccc4[nH]ncc4c3)c2c1Br : F
2. CC(C)c1cc2c(Nc3ccc4[nH]ncc4c3)ncnc2[nH]1 : F
3. Cc1c(C(=O)O)[nH]c2ncnc(Nc3ccc4[nH]ncc4c3)c12 : F

[in] Hello, I need to know if C=C(C)c1cc2c(Nc3ccc4[nH]ncc4c3)ncnc2[nH]1 has measured pIC50 not below 8. Thanks!
[out] T

[in] Field entry: CN(C)CCCNC(=O)c1cc2c(Nc3ccc4[nH]ncc4c3)ncnc2[nH]1
[out] T

----------
Target: human full-length MKNK1 (Homo sapiens, UniProt Q9BUB5, T385D)
Construct: GST (N)
Assay: MKNK1 kinase high ATP assay (TR-FRET)
Details: high ATP (2 mM final), 15 min preincubation with enzyme
In this section we review reported IC50 values for a set of compounds.
Write the answer as a number in nM, unit excluded.

Reference set, count: 4
1) CS(=O)(=O)c1cc2c(Nc3ccc4[nH]ncc4c3)ncnc2[nH]1 : 11
2) CN1CCN(C(=O)c2cc3c(Nc4ccc5[nH]ncc5c4)ncnc3[nH]2)CC1 : 9
3) C1=C(c2c[nH]c3ncnc(Nc4ccc5[nH]ncc5c4)c23)CCOC1 : 12
4) c1ccc(-c2c[nH]c3ncnc(Nc4ccc5[nH]ncc5c4)c23)cc1 : 16

[in] I am curious: what IC50 value has been reported for c1cc(-c2c[nH]c3ncnc(Nc4ccc5[nH]ncc5c4)c23)ccn1 ?
[out] 6

[in] Field entry: CCCc1[nH]c2ncnc(Nc3ccc4[nH]ncc4c3)c2c1CC
[out] 13

[in] Field entry: Cc1c[nH]c2ncnc(Nc3ccc4[nH]ncc4c3)c12
[out] 22

[in] Field entry: C(=C\c1cc2c(Nc3ccc4[nH]ncc4c3)ncnc2[nH]1)/c1ccccc1
[out] 6

[in] Field entry: Cc1ccc(S(=O)(=O)c2cc3c(Nc4ccc5[nH]ncc5c4)ncnc3[nH]2)cc1
[out] 2

[in] Field entry: CCOC(=O)c1[nH]c2ncnc(Nc3ccc4[nH]ncc4c3)c2c1C
[out] 13

[in] Field entry: Clc1cc2c(Nc3ccc4[nH]ncc4c3)ncnc2[nH]1
[out] 32

[in] Field entry: c1ccc(CCc2cc3c(Nc4ccc5[nH]ncc5c4)ncnc3[nH]2)cc1
[out] 80
